Value source: ChEMBL document CHEMBL5665443

STUDY_SYSTEM: Endonuclease III-like protein 1 (Homo sapiens) (UniProt P78549);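 also: enzyme assay tracking NTHL1 cutting and release of a quenched double-stranded DNA oligo substrate, read as fluorescence at 594 nm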
Sequence (P78549 whole entry): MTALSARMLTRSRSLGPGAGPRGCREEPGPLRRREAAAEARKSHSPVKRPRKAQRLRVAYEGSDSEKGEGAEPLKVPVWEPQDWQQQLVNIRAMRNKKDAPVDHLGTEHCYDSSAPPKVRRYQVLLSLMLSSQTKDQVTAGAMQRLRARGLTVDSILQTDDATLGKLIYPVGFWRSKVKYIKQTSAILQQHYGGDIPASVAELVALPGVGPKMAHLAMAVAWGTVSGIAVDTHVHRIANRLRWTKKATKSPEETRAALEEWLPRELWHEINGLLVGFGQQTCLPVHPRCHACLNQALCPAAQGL
PROTOCOL_CONDITIONS: Compound Concentration 10.0 uM, Hit No
// reported inhibition per item

COMPOUND	STUDY_SYSTEM	inhibition / %
O=S(=O)(Nc1nnc2cc(OCC34CC5CC(CC(C5)C3)C4)c(C3CC3)cn12)C1CC1	Endonuclease III-like protein 1 (Homo sapiens) (UniProt P78549)	10.5
CC(C)[C@@H]1CC[C@@H](C)C[C@@H]1P(=O)(c1ccccc1)c1ccccc1	Endonuclease III-like protein 1 (Homo sapiens) (UniProt P78549)	6.35
O=C1c2cccc3c2[C@H](CCC3)CN1[C@@H]1CN2CCC1CC2	Endonuclease III-like protein 1 (Homo sapiens) (UniProt P78549)	3.04
O[C@H]1CC[C@H](Nc2ncc3nc(Nc4c(F)cc(F)cc4F)n([C@H]4CCOC4)c3n2)CC1	Endonuclease III-like protein 1 (Homo sapiens) (UniProt P78549)	1.48
CC1=C(C#N)C(c2ccc3[nH]nc(C)c3c2)C(C#N)=C(C)N1	Endonuclease III-like protein 1 (Homo sapiens) (UniProt P78549)	7.43
N[C@@H](Cc1cc(I)c(Oc2ccc(O)c(I)c2)c(I)c1)C(=O)O	Endonuclease III-like protein 1 (Homo sapiens) (UniProt P78549)	-3.92
COc1cc(OC)c(NC(=O)c2ccc(Cc3cc4c(cc3C)C(C)(C)CCC4(C)C)o2)c(OC)c1	Endonuclease III-like protein 1 (Homo sapiens) (UniProt P78549)	19.5
CS(=O)(=O)c1cccc(NC(=O)N(Cc2ccc(C(=O)Nc3nnn[nH]3)cc2)c2ccc(C3CCCCC3)cc2)c1	Endonuclease III-like protein 1 (Homo sapiens) (UniProt P78549)	7.79
COC[C@H](O)Cn1c(=O)cnn(-c2ccc(Cl)c(C(=O)NCC3(O)CCCCCC3)c2)c1=O	Endonuclease III-like protein 1 (Homo sapiens) (UniProt P78549)	-8.51
CCOc1ccc(S(=O)(=O)Nc2ccc(Cl)cc2C#Cc2cnc(C(=O)O)cc2OC)c2ncccc12	Endonuclease III-like protein 1 (Homo sapiens) (UniProt P78549)	-3.26
CN1CCC(c2c[nH]c3ccc(O)cc23)CC1	Endonuclease III-like protein 1 (Homo sapiens) (UniProt P78549)	12.9
CCn1c(CNC(=O)c2ncc(C)nc2N)[n+](CC)c2ccc(C(=O)N(C)CCN(C)C)cc21	Endonuclease III-like protein 1 (Homo sapiens) (UniProt P78549)	-6.55
COc1nc2ccc([C@@](O)(c3ccccc3)C3CCN(C(C)=O)CC3)cc2c(Cl)c1Cc1ccc(-n2cccn2)cc1	Endonuclease III-like protein 1 (Homo sapiens) (UniProt P78549)	-1.29
CC(C)(C)C1CCc2c(sc(NC(=O)c3ccco3)c2C(=O)O)C1 (stereo not given)	Endonuclease III-like protein 1 (Homo sapiens) (UniProt P78549)	33.6
CCc1cc(C(C)=O)c(O)cc1OCCCCCC(C)(C)c1nn[nH]n1	Endonuclease III-like protein 1 (Homo sapiens) (UniProt P78549)	9.99
Cc1cn([C@@H](C)CC#N)c(=O)c2cc(Cn3nc(C(F)F)cc3Cl)nn12	Endonuclease III-like protein 1 (Homo sapiens) (UniProt P78549)	5.29
Cc1ccc(O)c([C@H](CCN(C(C)C)C(C)C)c2ccccc2)c1	Endonuclease III-like protein 1 (Homo sapiens) (UniProt P78549)	-3.21
OCCn1cc(-c2cnc3nnn(Cc4ccc5ncccc5c4)c3n2)cn1	Endonuclease III-like protein 1 (Homo sapiens) (UniProt P78549)	-9.68
Cc1nnn(-c2ccc(-c3ccc(C4(C(=O)O)CC4)cc3)cc2)c1NC(=O)O[C@H](C)c1ccccc1	Endonuclease III-like protein 1 (Homo sapiens) (UniProt P78549)	-7.6
O=C1c2ccccc2C(Cc2ccncc2)(Cc2ccncc2)c2ccccc21	Endonuclease III-like protein 1 (Homo sapiens) (UniProt P78549)	20.4

====

STUDY_SYSTEM: Adenine DNA glycosylase (Homo sapiens);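 also: human MUTYH activity read as 594 nm fluorescence from cleavage and release of a quenched DNA duplex, coupled with APE1 for strand incision, lower signal meaning inhibition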
Sequence (whole entry): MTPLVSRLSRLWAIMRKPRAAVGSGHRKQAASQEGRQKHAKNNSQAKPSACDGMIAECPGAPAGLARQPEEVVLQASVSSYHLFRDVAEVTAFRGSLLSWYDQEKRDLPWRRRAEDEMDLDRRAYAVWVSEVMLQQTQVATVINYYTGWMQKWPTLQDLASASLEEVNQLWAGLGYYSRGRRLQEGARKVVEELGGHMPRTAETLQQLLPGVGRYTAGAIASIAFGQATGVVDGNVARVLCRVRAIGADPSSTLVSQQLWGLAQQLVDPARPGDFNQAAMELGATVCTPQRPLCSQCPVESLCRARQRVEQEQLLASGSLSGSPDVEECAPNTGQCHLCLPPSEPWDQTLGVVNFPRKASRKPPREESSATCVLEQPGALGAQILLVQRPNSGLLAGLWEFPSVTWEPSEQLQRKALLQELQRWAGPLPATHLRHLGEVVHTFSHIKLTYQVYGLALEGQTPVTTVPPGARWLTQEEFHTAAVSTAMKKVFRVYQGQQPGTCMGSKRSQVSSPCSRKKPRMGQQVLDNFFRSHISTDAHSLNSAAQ
PROTOCOL_CONDITIONS: Compound Concentration 10.0 uM, Hit No
// reported inhibition per item

COMPOUND	inhibition
CNCc1ccccc1-c1csc([C@@H](C)Nc2nc(C)nc3cc(OC)c(OC)cc23)c1	19.2%
CC(C)c1ccc(CC(=O)N[C@H](C)c2ccc(OCC(F)(F)F)cn2)cc1	-5.06%
C[C@@H](C(N)=O)[C@H](N)c1nc2ccc(C(C)(C)C)cc2[nH]1	0.595%
CC[C@H](NC(=O)c1c(C)c(-c2ccccc2)nc2ccccc12)c1ccccc1	0.0213%
Cc1ccccc1N1CCN(CCc2nnc3n2CCCC3)CC1	7.44%
O=C(Nc1cccc(C(F)(F)F)c1)c1cc(Cl)ccc1O	0.595%
COc1cc2nc(N(C)CCCNC(=O)C3CCCO3)nc(N)c2cc1OC (stereo not given)	34.2%
Cc1ccc(S(=O)(=O)Nc2ccc(-n3nc(C(F)(F)F)cc3C(F)(F)F)cc2)cc1	-4.85%
CC(=O)[C@H]1CC[C@H]2[C@@H]3CC[C@H]4C[C@H](O)CC[C@]4(C)[C@H]3CC[C@]12C	1.4%
CNc1nc(Nc2ccccc2)nc(OC(C(F)(F)F)C(F)(F)F)n1	-4.15%

====

STUDY_SYSTEM: UniProtKB P78549
PROTOCOL_CONDITIONS: Compound Concentration 10.0 uM, Hit No

MOLECULE	inhibition, %
CC1(C)CC(CN2CCC(F)(CNC(=O)c3cc(Cl)cc(Cl)c3)CC2)CCO1 (stereo not given)	-3.56
CN1CCN(C(=O)C(C)(C)c2ccc(C(=O)Nc3cn4cc(-c5cc(C(C)(C)C)cc(C(C)(C)C)c5)ccc4n3)cc2)CC1	-6.55
CNC(=O)c1cc(C(=O)NC2CC2)cn(Cc2ccccc2)c1=O	-1.29
CC(=O)c1ccc2c(c1)[C@@H]1C=CC[C@@H]1[C@H](c1cc3c(cc1Br)OCO3)N2	11.4
CCOC(=O)Nc1ccc2c(c1)N(C(=O)CN(CC)CC)c1ccccc1CC2	4.63

====

STUDY_SYSTEM: Endonuclease 8-like 1 (Homo sapiens);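 also: fluorescence at 594 nm from quenched duplex DNA oligonucleotides released by NEIL1 cleavage and strand separation, reported as reduction of this enzyme activity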
PROTOCOL_CONDITIONS: Compound Concentration 10.0 uM, Hit No
Where a SMILES comes first, the peptide text is derived from it.

COMPOUND	READOUT_UNITS	inhibition
CCC(F)(F)c1cc(N2CCC(S(C)(=O)=O)CC2)nc2sc(C(N)=O)c(N)c12	%	-3.46
CC(C)(O)CCn1c(=O)n(C(=O)N[C@H](C(N)=O)C(C)(C)C)c2ccccc21	%	2.61
CN1CCN2c3ncccc3Cc3ccccc3C2C1 (stereo unspecified)	%	3.95
Cc1nnsc1C(=O)Nc1ccc(-n2nc(C(F)(F)F)cc2C(F)(F)F)cc1	%	0.306
CC(C)c1ccc(CC(=O)N2CCC[C@@H](c3cccc(OC(C)(C)C(=O)O)c3)C2)cc1	%	-5.29
O=S(=O)(c1ccccc1)c1cnc2c(N3CCNCC3)cccc2c1	%	6.47
CC(C)NC(=O)c1ccc(C#Cc2ccncc2)cn1	%	7.51
CCCn1c(=O)c2nc(C34CC5CC(CC3C5)C4)[nH]c2n(CCC)c1=O	%	5.88
C=CCN1C[C@H](C(=O)N(CCCN(C)C)C(=O)NCC)C[C@@H]2c3cccc4[nH]cc(c34)C[C@H]21	%	10.6
OC[C@H]1O[C@@H](n2cnc3c(NC4CCCC4)ncnc32)[C@H](O)[C@@H]1O	%	2.61
CC(C)Oc1ccccc1C(=O)Nc1ccccc1C(=O)Nc1cccc(S(=O)(=O)C(F)(F)F)c1	%	-8.8
CCCCN(Cc1ccccc1)C(=O)c1ccc(S(=O)(=O)Nc2ccccc2)cc1	%	-9.37
O=C(N[C@H](Cc1ccc(Cl)cc1)C(=O)N1CCC(Cn2cncn2)(C2CCCCC2)CC1)[C@H]1Cc2ccccc2CN1	%	5.49
CCNC1(C(N)=O)CCN(c2ncnc3c2nc(-c2ccccc2Cl)n3-c2ccc(Cl)cc2)CC1	%	1.13
CCCN(CCc1cccs1)[C@H]1CCc2c(O)cccc2C1	%	-8.88
COc1ccc2[nH]c(I)c(CCNC(C)=O)c2c1	%	-5.77
Oc1ccc2c3c1O[C@H]1c4[nH]c5c(c4C[C@@]4(O)[C@@H](C2)N(CC2CC2)CC[C@]314)C[C@@]1(O)[C@H]2Cc3ccc(O)c4c3[C@@]1(CCN2CC1CC1)[C@H]5O4	%	-5.39
Cc1cc(OCC(=O)O)cc(C)c1Cc1ccc(O)c(C(C)C)c1	%	-0.29
COc1cc(C(=O)O)ncc1C#Cc1ccccc1NS(=O)(=O)c1cccc2c(N(C)C)ccnc12	%	-0.29
CC(C)C[C@@H]1NC(=O)[C@@H](C(C)C)NC(=O)[C@@H]2CCCN2C(=O)[C@@H](CC(=O)O)NC(=O)[C@@H](Cc2c[nH]c3ccccc23)NC1=O (HELM PEPTIDE1{L.[dW].[dD].P.[dV]}$PEPTIDE1,PEPTIDE1,1:R1-5:R2$$$V2.0)	%	-3.47
COc1cc(C)c(Sc2cnc(NC(=O)c3ccc(CNC(C)C(C)(C)C)cc3)s2)cc1C(=O)N1CCN(C(C)=O)CC1 (stereo unspecified)	%	-0.787
CC(=O)Nc1nc(C)c(S(=O)(=O)Nc2ccc(C(O)(C(F)(F)F)C(F)(F)F)cc2)s1	%	1.83
CN1CCN(c2ccnc(NCCc3ccccc3)n2)CC1	%	2.13
O=C(Nc1ccc(C(O)(C(F)(F)F)C(F)(F)F)cc1)c1ccc(C(F)(F)F)cc1	%	-5.59
CCNC(=O)[C@H]1O[C@@H](n2cnc3c(N)ncnc32)[C@H](O)[C@@H]1O	%	3.86
Cc1cc(-c2nncc3c(C(C)(C)C)c(OCc4ncnn4C)nn23)no1	%	-1.32
CNC(=O)c1cc(C(=O)N[C@H]2[C@@H]3COC[C@@H]32)cc2c1O[C@@H](CF)[C@@H]2c1ccccc1	%	6.68
CCc1cc2c(cc1CC)CC(NC[C@H](O)c1ccc(O)c3[nH]c(=O)ccc13)C2	%	0.834
CC(C)C[C@@H](C(=O)N[C@@H](Cc1ccc(OCc2ccccc2)cc1)C(=O)NC(C)(C)C)N(C)Cc1ccc(C(C)(C)C)cc1	%	2.38
NCCc1cccs1	%	7.57
N#Cc1ccc(Cn2ccc(NC(=O)Cc3ccc(C4(C(F)(F)F)CC4)cc3)n2)nc1	%	4.9
Cc1cc(C)c(NC(=O)C2CC3CCC2C3)c(C)c1 (stereo unspecified)	%	-1.18
C=CC(=O)Nc1cccc(C(=O)Nc2ccc(Nc3cc(-c4[nH]c(S)nc4C)ccn3)cc2)c1	%	5.55
C[C@@H]1C[C@H](C)CN(c2ncc(Cl)c(Nc3ccc4c(c3)cc(OC(C)(C)C(=O)O)c(=O)n4C)n2)C1	%	-5.89
O=C(NCC1(N2CCN(c3ccccc3)CC2)CCOCC1)c1cccnc1Sc1ccccc1	%	-4.14
CC(C)CCC[C@@H](C)[C@H]1CC[C@H]2[C@@H]3[C@H](O)C=C4C[C@@H](O)CC[C@]4(C)[C@H]3CC[C@]12C	%	8.25
